Target: GST-Ap-NF-kB RHD (Exaiptasia pallida (Aiptasia), UniProt A0A913YAJ5 2-422)
Sequence: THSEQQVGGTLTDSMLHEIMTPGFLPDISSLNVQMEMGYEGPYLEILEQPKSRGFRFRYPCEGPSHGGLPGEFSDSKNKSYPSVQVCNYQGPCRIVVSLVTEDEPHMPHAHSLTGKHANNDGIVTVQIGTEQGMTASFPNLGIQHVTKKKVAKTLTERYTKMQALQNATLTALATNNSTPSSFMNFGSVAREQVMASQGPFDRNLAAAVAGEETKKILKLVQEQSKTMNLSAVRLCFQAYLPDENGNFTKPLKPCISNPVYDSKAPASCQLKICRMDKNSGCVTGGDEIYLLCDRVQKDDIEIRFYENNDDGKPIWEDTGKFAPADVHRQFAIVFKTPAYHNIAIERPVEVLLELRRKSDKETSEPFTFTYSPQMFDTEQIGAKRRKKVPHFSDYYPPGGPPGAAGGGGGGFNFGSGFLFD
Assay: protein-binding microarray (PBM); PBM: ~300 nM protein, 6 mM HEPES pH 7.8, 80 mM KCl, 0.5 mM EDTA, 0.5 mM EGTA, 6% glycerol, 35 ng/ul poly-dIdC, 1% milk, 1 h, room temperature; Ap Aiptasia and Nv Nematostella (sea anemones) / Co Capsaspora / Aq Amphimedon (sponge) / Dm Drosophila / Hu human; RHD is the Rel homology domain; high values mean tight binding
Conditions: dsDNA, one strand shown

| primary-sequence | system | binding signal [z-score] |
| --- | --- | --- |
| CCGATTAACATCAGGGGTATACCTGATGTTAATCGGGTCTTGATTCGCTTGACGCTGCTG | GST-Ap-NF-kB RHD (Exaiptasia pallida (Aiptasia), UniProt A0A913YAJ5 2-422) | 4.25 |
| CCGATTAACATCAACGGGAATTCTGATGTTAATCGGGTCTTGATTCGCTTGACGCTGCTG | GST-Ap-NF-kB RHD (Exaiptasia pallida (Aiptasia), UniProt A0A913YAJ5 2-422) | 4.32 |
| CCGATTAACATCAAAAATCCCGGTGATGTTAATCGGGTCTTGATTCGCTTGACGCTGCTG | GST-Ap-NF-kB RHD (Exaiptasia pallida (Aiptasia), UniProt A0A913YAJ5 2-422) | 4.77 |
| CCGATTAACATCAACCCCAGCTCTGATGTTAATCGGGTCTTGATTCGCTTGACGCTGCTG | GST-Ap-NF-kB RHD (Exaiptasia pallida (Aiptasia), UniProt A0A913YAJ5 2-422) | 1.01 |
| CCGATTAACATCAAAGCATCCCCTGATGTTAATCGGGTCTTGATTCGCTTGACGCTGCTG | GST-Ap-NF-kB RHD (Exaiptasia pallida (Aiptasia), UniProt A0A913YAJ5 2-422) | 4.67 |
| CCGATTAACATCACCGTTTCCCCTGATGTTAATCGGGTCTTGATTCGCTTGACGCTGCTG | GST-Ap-NF-kB RHD (Exaiptasia pallida (Aiptasia), UniProt A0A913YAJ5 2-422) | 6.05 |
| CCGATTAACATCAGGGGGATCCATGATGTTAATCGGGTCTTGATTCGCTTGACGCTGCTG | GST-Ap-NF-kB RHD (Exaiptasia pallida (Aiptasia), UniProt A0A913YAJ5 2-422) | 7.42 |
| CCGATTAACATCATAGTCCCATGTGATGTTAATCGGGTCTTGATTCGCTTGACGCTGCTG | GST-Ap-NF-kB RHD (Exaiptasia pallida (Aiptasia), UniProt A0A913YAJ5 2-422) | 2.47 |
| CCGATTAACATCACGGGAATTTCTGATGTTAATCGGGTCTTGATTCGCTTGACGCTGCTG | GST-Ap-NF-kB RHD (Exaiptasia pallida (Aiptasia), UniProt A0A913YAJ5 2-422) | 5.46 |
